target: T1, HER2 receptor on the surface of NCI-N87 cells (human, UniProt P04626 23-1255); experiment: flow cytometry on NCI-N87 cells, PE-labelled secondary antibody
T1 construct: whole, on cells; also called HER2 on tumor cell surface
MEASURED_PROPERTY: EC50 (mg/L)
Quick reminder: number only, in mg/L, skip the unit.

Example binders with recorded EC50:
Task: Quick one: EC50 of HER2 VHH-FC1 fusion protein 2-C07 (Fc fusion, 25; also called 2-C07-FC1; chimeric nanobody 2-C07) AVQLVESGGGLVQPGGSLRLSCAASGLTFMRYDINWYRQAPGKERELVAALDSSSGRTNYADFTEGRFTISRNNAKNSAYLQMNNLKPEDTASYYCNAQWKRIGADYWGQGTQVTVFSEPKSSDKTHTCPPCPAPEFEGGPSVFLFPPKPKDTLMISRTPEVTCVVVDVSHEDPEVKFNWYVDGVEVHNAKTKPREEQYNSTYRVVSVLTVLHQDWLNGKEYKCKVSNKALPASIEKTISKAKGQPREPQVYTLPPSRDELTKNQVSLTCLVKGFYPSDIAVEWESNGQPENNYKTTPPVLDSDGSFFLYSKLTVDKSRWQQGNVFSCSVMHEALHNHYTQKSLSLSPGK ?
Output: 0.131

Task: Would you kindly share the measured EC50 for HER2 VHH-FC1 fusion protein 2-F03 (Fc fusion, 25; also called 2-F03-FC1; chimeric nanobody 2-F03) EVQLVESGGGLVQPGGSLRLSCAASGLTFRRYHMSWYRQAPGKERELVAVISDTGTTNYAESVKGRFTISRDNSRSTVFLQLNSLKPDDTAVYYCNGRWPAVAADWWGQGTQVTVSSEPKSSDKTHTCPPCPAPEFEGGPSVFLFPPKPKDTLMISRTPEVTCVVVDVSHEDPEVKFNWYVDGVEVHNAKTKPREEQYNSTYRVVSVLTVLHQDWLNGKEYKCKVSNKALPASIEKTISKAKGQPREPQVYTLPPSRDELTKNQVSLTCLVKGFYPSDIAVEWESNGQPENNYKTTPPVLDSDGSFFLYSKLTVDKSRWQQGNVFSCSVMHEALHNHYTQKSLSLSPGK ?
Output: 0.13

Task: Form field: reported EC50 of HER2 VHH-FC1 fusion protein 1-B05 (Fc fusion, 25; also called 1-B05-FC1; chimeric nanobody 1-B05) AVQLVESGGGPGGSLRLSCAASGITFFRHTLGWYRQAPGKQRELVASITGGESTNYADSVKSRFTISRDNAKNMVFLQMNSLKPEDTALYYCNSKWDAAGVEFWGKGTLVTVSSEPKSSDKTHTCPPCPAPEFEGGPSVFLFPPKPKDTLMISRTPEVTCVVVDVSHEDPEVKFNWYVDGVEVHNAKTKPREEQYNSTYRVVSVLTVLHQDWLNGKEYKCKVSNKALPASIEKTISKAKGQPREPQVYTLPPSRDELTKNQVSLTCLVKGFYPSDIAVEWESNGQPENNYKTTPPVLDSDGSFFLYSKLTVDKSRWQQGNVFSCSVMHEALHNHYTQKSLSLSPGK
Output: 0.144

Would you kindly look at the next entry?
Task: Which EC50 value is on record for HER2 VHH-FC1 fusion protein 1-C09 (Fc fusion, 25; also called 1-C09-FC1; 1-C9-FC1) DVQLVESGGGLVQPGGSLRLSCEASGLTFRRYHFSWYRQPPGKERELVAVISDTGSTTNYTDSVKGRFTISRDLARNTVFLQLNSLKPDDTAVYYCNAKWPIIAADWWGQGTQVTVSSEPKSSDKTHTCPPCPAPEFEGGPSVFLFPPKPKDTLMISRTPEVTCVVVDVSHEDPEVKFNWYVDGVEVHNAKTKPREEQYNSTYRVVSVLTVLHQDWLNGKEYKCKVSNKALPASIEKTISKAKGQPREPQVYTLPPSRDELTKNQVSLTCLVKGFYPSDIAVEWESNGQPENNYKTTPPVLDSDGSFFLYSKLTVDKSRWQQGNVFSCSVMHEALHNHYTQKSLSLSPGK ?
Output: 0.109

These data points were gathered from patent US20260151496A1.
